Taken from the supplement of paper PMC10567573.

Answer each item with its documented protein stability index.
Assay: protein stability index of a GFP-peptide fusion (GPS, HEK-293T) (PSI 1-6); higher = more stable;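 note: 24-mer peptide tiles fused after GFP, lentivirally expressed, FACS-sorted into six equal bins by GFP/DsRed ratio, decoded by Illumina sequencing, PSI is the read-weighted mean bin number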
Conditions: treatment: DMSO; c terminus: a fixed tail appended
// keep it numeric: no unit symbol after the value

CLTAGPEVAAQLPAVRQLLPCARV [ZSWIM9] has a reported protein stability index of 2.94

NNQSDLEKEMQKMNPYKIDIGAVY [PRIM1] has a reported protein stability index of 3.03

PEGARRGLGVLRALGSRGWEPFDW [FANCE] has a reported protein stability index of 3.05

CGACLTQLFFFHLFVGVDCFLLTA [OR3A1] has a reported protein stability index of 3.07

TLALLLNFLACLASFCVETNNGAG [SCAMP3] has a reported protein stability index of 3.06
